- tested-system: T1, full-length human GIPR with an N-terminal FLAG tag (human, UniProt P48546 22-466)
- T1 sequence (looked up): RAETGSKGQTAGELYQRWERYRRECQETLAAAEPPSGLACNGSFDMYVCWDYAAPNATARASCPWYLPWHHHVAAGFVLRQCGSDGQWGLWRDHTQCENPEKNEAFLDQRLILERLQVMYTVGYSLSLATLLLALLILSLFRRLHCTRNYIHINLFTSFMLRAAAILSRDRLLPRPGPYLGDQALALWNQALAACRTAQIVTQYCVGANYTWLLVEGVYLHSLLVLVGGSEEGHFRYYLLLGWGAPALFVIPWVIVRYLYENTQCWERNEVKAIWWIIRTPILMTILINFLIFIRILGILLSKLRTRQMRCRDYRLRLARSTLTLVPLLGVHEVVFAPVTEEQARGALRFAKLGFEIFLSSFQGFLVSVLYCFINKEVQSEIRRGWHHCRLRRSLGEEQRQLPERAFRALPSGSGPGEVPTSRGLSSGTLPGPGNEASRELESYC
- assay-protocol: cell-based or functional assay
Starred links: 1 amine or outer side, 2 acyl side, 3 side chain; linkers in the order of their positions; H or OH if unused. Non-standard residues stand in square brackets, D forms with d. Groups on a side chain read outwards from the residue. No end group written: not given here. *: point of attachment. C15 diacid = O=C(O)CCCCCCCCCCCCCC(=O)*; γGlu = O=C(O)[C@H](CCC(=O)[*:2])N[*:1]; NMeY = CN[C@@H](Cc1ccc(O)cc1)C(=O)O; AEEA = NCCOCCOCC(=O)O; Aib = CC(C)(N)C(=O)O
Below, each of the binders is paired with its reported Human GIPR cAMP, HEK293T EC50 value.

>  <binder>
[NMeY][Aib]EGTFISDYSI[Aib]LDR[Aib]AQ[Aib]K([Gly-Gly-Glu-Glu-Glu-C15 diacid])FVNWLLAQK-NH2 [Compound 113]

>  <units-text>
pM

>  <Human GIPR cAMP, HEK293T EC50>
0.4

$$$$
>  <binder>
[NMeY][Aib]EGTFISDYSIALDR[Aib]AQ[Aib]K([AEEA-AEEA-γGlu-γGlu-C15 diacid])FVNWLLAQR (not fully specified (N-terminus, C-terminus)) [Compound 15]

>  <units-text>
pM

>  <Human GIPR cAMP, HEK293T EC50>
0.3

$$$$

// provenance: patent US20220227830A1
